target: UniProtKB O14842; assay: FLIPR intracellular calcium response in HEK-293 cells transiently expressing GPR40; format: cell-based; set-up: expressed in transfected cells; host or cells: HEK-293 (transient); conditions: FLIPR, GPR40 stimulation; Additional Fatty Acid Compounds; read-out: EC50 uM
Sequence (O14842 whole entry): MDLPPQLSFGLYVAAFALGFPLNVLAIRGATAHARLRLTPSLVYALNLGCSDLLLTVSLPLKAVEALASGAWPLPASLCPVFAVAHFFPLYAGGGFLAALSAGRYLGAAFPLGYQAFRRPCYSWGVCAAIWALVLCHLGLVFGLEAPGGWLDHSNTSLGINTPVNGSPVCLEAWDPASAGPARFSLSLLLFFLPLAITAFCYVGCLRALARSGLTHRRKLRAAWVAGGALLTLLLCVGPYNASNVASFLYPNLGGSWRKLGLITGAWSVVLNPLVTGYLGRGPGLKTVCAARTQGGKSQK
The label is Y for EC50 below 7 µM and N for EC50 equal to or exceeding 7 µM.

CCCCC/C=C\C/C=C\CCCCCCCCCC(=O)O [Eicosa-11Z,14Z-dienoic acid]    N
CC/C=C\C/C=C\C/C=C\CCCCCCCCCC(=O)O [Eicosa-11Z,14Z,17Z-trienoic acid]    N
CCCCCCCCC#CCC#CCC#CCCCC(=O)O    Y
C#CCCCCCCCCCCCCCCCC(=O)O    N
CCC=CCC=CCC=CCC=CCC=CC/C=C\CCC(=O)O [cis-4,7,10,13,16,19-Docosahexaenoic acid]    Y

Is it true that EC50 reported for `CCCCCCCCCCC/C=C\C/C=C\CCCC(=O)O` is less than 7 µM? N

Please do the same for `CC/C=C\C/C=C\C/C=C\C/C=C\C/C=C\CCCCCC(=O)O` as well. Y

Next: `CCCCC/C=C\C/C=C\C/C=C\C/C=C\CCCC(=O)O` N
